assay-remarks: In vivo pharmacokinetics in male mice
condition-parameters: male, mouse, plasma, po, 20 mg/kg
metric-name: Cmax (ng/mL)
Report only the number, with the unit ng/mL understood.

O=C(/N=c1\sccn1Cc1ccccc1)c1c[nH]c2ncncc12 [Compound 5k] : 13300

Kindly consider the entry below.
Return reported Cmax; argument: O=C(/N=c1\sccn1Cc1ccccc1)c1n[nH]c2ncccc12 [Compound 5l]
5740

###

assay-remarks: In vivo pharmacokinetics in male mice
condition-parameters: male, mouse, plasma, po, 20 mg/kg
Item-by-item account of AUC(0-t)
Give just the numeric value; ng·h/mL need not be written.

O=C(/N=c1\sccn1Cc1ccccc1)c1n[nH]c2ncccc12 [Compound 5l] : 5150

Pending molecule:
Fill in: AUC(0-t) of O=C(/N=c1\sccn1Cc1ccccc1)c1c[nH]c2ncncc12 [Compound 5k] is ___
25700

###

remaining at 0.5 h, 1 μM reference
assay-remarks: in vitro
condition-parameters: human, liver microsomes
Entry rule: numbers only, all in %.

Recorded results for 2 compounds are shown here.
O=C(/N=c1\sccn1Cc1ccccc1)c1c[nH]c2ncncc12 : 43.1
O=C(/N=c1\sccn1Cc1ccccc1)c1c[nH]c2ncccc12 [1 (Truli), reference compound] : 2.68

Now for the compound whose remaining at 0.5 h, 1 μM we want.
Which remaining at 0.5 h, 1 μM is listed for "O=C(/N=c1\sccn1Cc1ccccc1)c1n[nH]c2ncccc12" ?
34.9

###

This listing pairs compounds with measured clearance.
assay-remarks: In vivo pharmacokinetics in male mice
condition-parameters: male, mouse, plasma, iv, 5 mg/kg, CL, male mice
Express your answer in mL/min/kg, writing the number without its unit.

O=C(/N=c1\sccn1Cc1ccccc1)c1n[nH]c2ncccc12 : 28.2

Using the record for "O=C(/N=c1\sccn1Cc1ccccc1)c1c[nH]c2ncncc12" , report its clearance.
23.5

###

The following compounds are listed with their measured half-life values.
assay-remarks: In vivo pharmacokinetics in male mice
condition-parameters: male, mouse, plasma, iv, 5 mg/kg, T1/2, male mice
All answers are understood in h, so give the number only.

O=C(/N=c1\sccn1Cc1ccccc1)c1c[nH]c2ncncc12 : 2.86

Shifting focus to the compound that follows.
Recorded half-life for "O=C(/N=c1\sccn1Cc1ccccc1)c1n[nH]c2ncccc12" , please?
6.56

###

Entries and their half-life
assay-remarks: In vivo pharmacokinetics in male mice
condition-parameters: male, mouse, plasma, po, 20 mg/kg, T1/2, male mice
Please respond with the number in h and leave the unit unwritten.

O=C(/N=c1\sccn1Cc1ccccc1)c1n[nH]c2ncccc12 : 3.46

Shift focus to the following entry.
Recorded half-life of "O=C(/N=c1\sccn1Cc1ccccc1)c1c[nH]c2ncncc12" , please.
4.25

###

assay-remarks: In vivo pharmacokinetics in male mice
condition-parameters: male, mouse, plasma, ip, 10 mg/kg
metric-name: AUC(0-t) (ng·h/mL)
All answers are understood in ng·h/mL, so give the number only.

O=C(/N=c1\sccn1Cc1ccccc1)c1n[nH]c2ncccc12 : 4370

Which value of AUC(0-t) has been reported for "O=C(/N=c1\sccn1Cc1ccccc1)c1c[nH]c2ncncc12" in the records?
11400

###

Parameter: MRT last. Scope: all listed entries.
assay-remarks: In vivo pharmacokinetics in male mice
condition-parameters: male, mouse, plasma, iv, 5 mg/kg
Value expressed in h; do not type the unit.

I have this compound here, "O=C(/N=c1\sccn1Cc1ccccc1)c1c[nH]c2ncncc12" , and I need its recorded MRT last.
1.43

# get_value(readout='MRT last', item= "O=C(/N=c1\sccn1Cc1ccccc1)c1n[nH]c2ncccc12" )
0.71

###

assay-remarks: In vivo pharmacokinetics in male mice
condition-parameters: male, mouse, plasma, iv, 5 mg/kg
metric-name: MRT inf (h)
The response must be a number in h with no trailing unit.

O=C(/N=c1\sccn1Cc1ccccc1)c1n[nH]c2ncccc12 : 1.04

The record that follows has no MRT inf shown yet.
Need MRT inf, item "O=C(/N=c1\sccn1Cc1ccccc1)c1c[nH]c2ncncc12"
1.49

###

Consider the following compounds and their measured half-life readings.
assay-remarks: In vivo pharmacokinetics in male mice
condition-parameters: male, mouse, plasma, ip, 10 mg/kg, T1/2, male mice
Quick reminder: number only, in h, skip the unit.

O=C(/N=c1\sccn1Cc1ccccc1)c1c[nH]c2ncncc12 [Compound 5k] : 5.24

Okay, next one:
Consider the compound O=C(/N=c1\sccn1Cc1ccccc1)c1n[nH]c2ncccc12 [Compound 5l] and give its measured half-life.
5.59

###

assay-remarks: In vivo pharmacokinetics in male mice
condition-parameters: male, mouse, plasma, ip, 10 mg/kg
# reported MRT inf; entries follow
Please give a number only; it is taken to be in h.

O=C(/N=c1\sccn1Cc1ccccc1)c1n[nH]c2ncccc12 : 1.14

# MRT inf lookup, item "O=C(/N=c1\sccn1Cc1ccccc1)c1c[nH]c2ncncc12"
1.27

###

assay-remarks: In vivo pharmacokinetics in male mice
condition-parameters: male, mouse, plasma, iv, 5 mg/kg
metric-name: AUC(0-inf) (ng·h/mL)
Hi! Could you send only the number? It should be in ng·h/mL, unit omitted.

O=C(/N=c1\sccn1Cc1ccccc1)c1c[nH]c2ncncc12 [Compound 5k] : 4340

What value of measured AUC(0-inf) is listed for O=C(/N=c1\sccn1Cc1ccccc1)c1n[nH]c2ncccc12 [Compound 5l] ?
2960

###

assay-remarks: In vivo pharmacokinetics in male mice
condition-parameters: male, mouse, plasma, ip, 10 mg/kg
Catalogue of AUC(0-inf) values
# number only, unit ng·h/mL dropped from output

O=C(/N=c1\sccn1Cc1ccccc1)c1n[nH]c2ncccc12 [Compound 5l] : 4390

Recorded AUC(0-inf) of O=C(/N=c1\sccn1Cc1ccccc1)c1c[nH]c2ncncc12 [Compound 5k] , please.
11500

###

assay-remarks: In vivo pharmacokinetics in male mice
condition-parameters: male, mouse, plasma, po, 20 mg/kg
metric-name: MRT last (h)
Expressed in h, but write only the number.

O=C(/N=c1\sccn1Cc1ccccc1)c1n[nH]c2ncccc12 : 1.5

GET /values?readout=MRT last&item= "O=C(/N=c1\sccn1Cc1ccccc1)c1c[nH]c2ncncc12"
1.74

###

Below is a list of entries, each paired with its recorded AUC(0-t) value.
assay-remarks: In vivo pharmacokinetics in male mice
condition-parameters: male, mouse, plasma, iv, 5 mg/kg
Only the number, expressed in ng·h/mL, is required.

O=C(/N=c1\sccn1Cc1ccccc1)c1c[nH]c2ncncc12 [Compound 5k] : 4340

// query AUC(0-t) value for entry O=C(/N=c1\sccn1Cc1ccccc1)c1n[nH]c2ncccc12 [Compound 5l]
2940

###

assay-remarks: In vivo pharmacokinetics in male mice
condition-parameters: male, mouse, plasma, ip, 10 mg/kg
metric-name: Tmax (min)
Write the number in min without appending the unit.

O=C(/N=c1\sccn1Cc1ccccc1)c1c[nH]c2ncncc12 : 30

We next turn to a different compound, shown below.
Suppose we examine the compound "O=C(/N=c1\sccn1Cc1ccccc1)c1n[nH]c2ncccc12" ; what Tmax value has been reported?
4.8

###

Reported Tmax by item:
assay-remarks: In vivo pharmacokinetics in male mice
condition-parameters: male, mouse, plasma, po, 20 mg/kg
Enter your answer as a number in min; do not include the unit.

O=C(/N=c1\sccn1Cc1ccccc1)c1n[nH]c2ncccc12 : 15

Kindly consider the entry below.
Bench note: what Tmax did "O=C(/N=c1\sccn1Cc1ccccc1)c1c[nH]c2ncncc12" show?
25.2

###

assay-remarks: In vivo pharmacokinetics in male mice
condition-parameters: male, mouse, plasma, po, 20 mg/kg
metric-name: MRT inf (h)
Output spec: scalar in h, unitless text.

O=C(/N=c1\sccn1Cc1ccccc1)c1n[nH]c2ncccc12 : 1.56

Reported MRT inf for "O=C(/N=c1\sccn1Cc1ccccc1)c1c[nH]c2ncncc12" : what is it?
1.81
